tested-target: DNA-PK(h) (Homo sapiens)
assay-details: Evaluation of inhibitory activity against DNA-PK (HTRF kinase assay, GST-cMyc-p53 substrate)
Format: biochemical
test-conditions: compound concentration 0.01 μM; read-out: EXP_VALUE(% Inhibition) DNA-PK(h) 0.01 μM
In this section, each of the compounds is paired with its reported inhibition at 0.01 µM.
recorded-metric: inhibition at 0.01 µM (%)

1) COc1ncc(-c2cccc3c(Cl)c([C@H](C)Nc4ncnc5[nH]ccc(=O)c45)n(-c4ccccc4)c(=O)c23)cc1C	61
2) C[C@H](Nc1ncnc2[nH]ccc(=O)c12)c1c(Cl)c2cccc(-c3ccc(OC(F)(F)F)cc3)c2c(=O)n1-c1ccccc1	21
3) C[C@H](Nc1ncnc2[nH]ccc(=O)c12)c1c(Cl)c2cccc(NC3CCOCC3)c2c(=O)n1-c1ccccc1	-1
4) CNc1ccc(-c2cccc3c(Cl)c([C@H](C)Nc4ncnc5[nH]ccc(=O)c45)n(-c4ccccc4)c(=O)c23)cn1	79
5) COc1cc(OC(C)C)cc(-c2cccc3c(Cl)c([C@H](C)Nc4ncnc5[nH]ccc(=O)c45)n(-c4ccccc4)c(=O)c23)c1	52
6) C[C@H](Nc1ncnc2[nH]ccc(=O)c12)c1c(Cl)c2cccc(C=O)c2c(=O)n1-c1ccccc1	19
7) C[C@H](Nc1ncnc2[nH]ccc(=O)c12)c1c(Cl)c2cccc(-c3ncc[nH]3)c2c(=O)n1-c1ccccc1	28
8) C[C@H](Nc1ncnc2[nH]ccc(=O)c12)c1c(Cl)c2cccc(-c3cnc(OCc4ccccc4)nc3)c2c(=O)n1-c1ccccc1	35
9) C[C@H](Nc1ncnc2[nH]ccc(=O)c12)c1c(Cl)c2cccc(Sc3ccncc3)c2c(=O)n1-c1ccccc1	39
10) C[C@H](Nc1ncnc2[nH]ccc(=O)c12)c1c(Cl)c2cccc(-c3cnc(N4CCOCC4)cn3)c2c(=O)n1-c1ccccc1	52
11) C[C@H](Nc1ncnc2[nH]ccc(=O)c12)c1c(Cl)c2cccc(-c3ccc(N4CCCC4)cc3)c2c(=O)n1-c1ccccc1	31
12) C[C@H](Nc1ncnc2[nH]ccc(=O)c12)c1c(Cl)c2cccc(-c3cnn(CCN(C)C)c3)c2c(=O)n1-c1ccccc1	66
13) CCOc1ccc(-c2cccc3c(Cl)c([C@H](C)Nc4ncnc5[nH]ccc(=O)c45)n(-c4ccccc4)c(=O)c23)cn1	68

----------
tested-target: PI3K-δ (PI3K(p1108/p857) (h)) (Homo sapiens, UniProt O00329)
Sequence (O00329 whole entry): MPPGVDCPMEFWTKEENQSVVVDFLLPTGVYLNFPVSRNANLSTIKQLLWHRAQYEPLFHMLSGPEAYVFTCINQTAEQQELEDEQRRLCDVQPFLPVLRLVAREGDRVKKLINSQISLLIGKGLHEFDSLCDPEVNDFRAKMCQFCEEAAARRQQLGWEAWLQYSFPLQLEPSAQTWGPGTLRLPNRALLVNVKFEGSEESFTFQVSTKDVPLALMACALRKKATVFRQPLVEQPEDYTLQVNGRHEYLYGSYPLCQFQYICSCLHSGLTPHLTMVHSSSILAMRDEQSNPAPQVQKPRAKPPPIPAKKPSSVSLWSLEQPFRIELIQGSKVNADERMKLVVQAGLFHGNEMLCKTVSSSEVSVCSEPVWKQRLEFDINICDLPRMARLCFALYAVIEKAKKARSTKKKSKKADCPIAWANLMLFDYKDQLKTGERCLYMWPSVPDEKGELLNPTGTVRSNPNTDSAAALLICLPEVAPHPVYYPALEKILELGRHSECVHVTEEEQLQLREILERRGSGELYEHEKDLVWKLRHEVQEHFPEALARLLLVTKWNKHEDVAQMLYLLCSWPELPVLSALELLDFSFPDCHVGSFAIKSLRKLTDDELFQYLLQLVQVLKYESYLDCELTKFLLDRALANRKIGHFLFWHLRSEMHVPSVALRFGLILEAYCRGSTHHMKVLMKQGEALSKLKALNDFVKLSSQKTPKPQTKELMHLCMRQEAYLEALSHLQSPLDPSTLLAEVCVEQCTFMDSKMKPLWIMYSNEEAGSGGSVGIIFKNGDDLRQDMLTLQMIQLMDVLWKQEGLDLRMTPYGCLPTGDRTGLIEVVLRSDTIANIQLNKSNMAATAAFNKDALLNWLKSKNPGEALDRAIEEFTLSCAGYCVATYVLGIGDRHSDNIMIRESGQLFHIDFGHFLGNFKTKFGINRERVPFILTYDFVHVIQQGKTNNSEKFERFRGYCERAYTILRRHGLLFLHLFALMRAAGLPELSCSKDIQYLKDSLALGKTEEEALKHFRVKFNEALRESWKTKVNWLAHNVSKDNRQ
Sequence (P27986 whole entry partner): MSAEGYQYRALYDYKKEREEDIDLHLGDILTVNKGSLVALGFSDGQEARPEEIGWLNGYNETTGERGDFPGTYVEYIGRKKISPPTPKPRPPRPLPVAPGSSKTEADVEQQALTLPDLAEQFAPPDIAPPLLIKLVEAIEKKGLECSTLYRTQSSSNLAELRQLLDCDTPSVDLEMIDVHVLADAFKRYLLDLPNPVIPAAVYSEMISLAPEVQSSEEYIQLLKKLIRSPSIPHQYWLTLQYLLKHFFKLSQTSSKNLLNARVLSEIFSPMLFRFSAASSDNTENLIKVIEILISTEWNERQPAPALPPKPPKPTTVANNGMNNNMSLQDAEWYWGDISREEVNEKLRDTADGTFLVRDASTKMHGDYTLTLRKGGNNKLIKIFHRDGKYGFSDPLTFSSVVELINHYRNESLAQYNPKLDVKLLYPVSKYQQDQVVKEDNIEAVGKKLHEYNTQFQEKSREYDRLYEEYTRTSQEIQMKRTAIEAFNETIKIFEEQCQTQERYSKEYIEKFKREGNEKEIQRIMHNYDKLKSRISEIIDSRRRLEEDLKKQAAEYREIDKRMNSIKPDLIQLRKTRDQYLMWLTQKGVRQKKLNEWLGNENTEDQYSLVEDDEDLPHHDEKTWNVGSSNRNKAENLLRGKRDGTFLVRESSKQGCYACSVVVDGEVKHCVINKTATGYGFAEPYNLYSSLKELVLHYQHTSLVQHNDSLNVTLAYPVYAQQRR
assay-details: Evaluation of inhibitory activity against PI3K-δ (HTRF kinase assay)
Format: biochemical
test-conditions: compound concentration 0.01 μM; read-out: EXP_VALUE(% Inhibition) PI3K-δ 0.01 μM
Catalogue of compounds with associated inhibition at 0.01 µM
recorded-metric: inhibition at 0.01 µM

1) C[C@H](Nc1ncnc2[nH]ccc(=O)c12)c1c(Cl)c2cccc(-c3ccc(C4CCN(C)CC4)cc3)c2c(=O)n1-c1ccccc1 [Example 130]	85%
2) C[C@H](Nc1ncnc2[nH]ccc(=O)c12)c1c(Cl)c2cccc(-c3ccc4ncn(C)c4c3)c2c(=O)n1-c1ccccc1 [Example 111]	80%
3) CCCSc1cccc2c(Cl)c([C@H](C)Nc3ncnc4[nH]ccc(=O)c34)n(-c3ccccc3)c(=O)c12 [Example 372]	3%

----------
tested-target: UniProt:P78527
assay-details: Evaluation of inhibitory activity against DNA-PK (HTRF kinase assay, GST-cMyc-p53 substrate)
Assay type: biochemical
test-conditions: compound concentration 0.01 μM; read-out: EXP_VALUE(% Inhibition) DNA-PK(h) 0.01 μM
Experimental: <Experimental Example 2> Evaluation of Inhibitory Activity Properties Against DNA-PK […] DNA-PK(h) was subjected to an isothermal treatment in an assay buffer comprising […] GST-cMyc-p53 and Mg/ATP (at a concentration as required). […] A plate was read in a time-resolved fluorescence mode and a homogeneous time-resolved fluorescence (HTRF) signal was determined according to HTRF=10000×(Em 665 nm/Em 620 nm).
recorded-metric: inhibition at 0.01 µM

1. C[C@H](Nc1ncnc2[nH]ccc(=O)c12)c1c(Cl)c2cccc(-c3ccc(OC(F)(F)F)nc3)c2c(=O)n1-c1ccccc1 [Example 223]	34%
2. Cc1nc(-c2cccc3c(Cl)c([C@H](C)Nc4ncnc5[nH]ccc(=O)c45)n(-c4ccccc4)c(=O)c23)[nH]c1C [Example 288]	8%
3. C[C@H](Nc1ncnc2[nH]ccc(=O)c12)c1c(Cl)c2cccc(NS(=O)(=O)CC(F)(F)F)c2c(=O)n1-c1ccccc1 [Example 302]	16%
4. C[C@H](Nc1ncnc2[nH]ccc(=O)c12)c1c(Cl)c2cccc(-c3cc(O)cc(F)c3)c2c(=O)n1-c1ccccc1 [Example 108]	7%
5. C[C@H](Nc1ncnc2[nH]ccc(=O)c12)c1c(Cl)c2cccc(C#N)c2c(=O)n1-c1ccccc1 [Example 265]	40%
6. COCCOc1cccc2c(Cl)c([C@H](C)Nc3ncnc4[nH]ccc(=O)c34)n(-c3ccccc3)c(=O)c12 [Example 363]	35%
7. C[C@H](Nc1ncnc2[nH]ccc(=O)c12)c1c(Cl)c2cccc(-c3ccc(SC4CC4)cc3)c2c(=O)n1-c1ccccc1 [Example 152]	36%
